Taken from patent US8680159B2.

- target-desc: B1R receptor of the rat (CHO K1 cells stably transfected with the B1R gene of the rat) (Rattus norvegicus, UniProt P97583)
- Construct: expressed in transfected cells; host or cells: CHO K1 cells (Chinese hamster ovary), stably transfected
- Sequence (P97583 whole entry): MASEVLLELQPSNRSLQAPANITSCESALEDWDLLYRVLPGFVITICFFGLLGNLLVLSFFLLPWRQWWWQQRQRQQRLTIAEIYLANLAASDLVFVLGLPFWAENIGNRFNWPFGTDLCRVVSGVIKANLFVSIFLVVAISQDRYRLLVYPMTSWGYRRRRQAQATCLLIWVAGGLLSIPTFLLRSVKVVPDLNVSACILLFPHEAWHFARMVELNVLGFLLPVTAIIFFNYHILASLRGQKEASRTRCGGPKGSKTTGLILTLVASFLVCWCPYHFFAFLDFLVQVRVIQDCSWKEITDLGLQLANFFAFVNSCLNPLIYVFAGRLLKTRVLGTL
- assay-method-text: Functional study on the bradykinin receptor 1 (B1R), Ca2+ fluorescence (Fluo-4) FLIPR/Novostar assay, rB1R cells
- Type: cell-based
- test-settings: CHO-K1, 10 μM, read-out: % Inhibition (r-B1R) at 10 μM
assay-endpoint: inhibition at 10 µM (%)
Output spec: scalar in %, unitless text.

Known results for compounds:
[
  {
    "compound": "CN(C(=O)c1ccc2c(c1)C(NC(=O)c1c(Cl)cccc1C(F)(F)F)CCC2)C1CCN(c2ccncc2)CC1 (stereo not shown) [CC_H-11]",
    "assay-endpoint": "inhibition at 10 µM",
    "unit-tag": "%",
    "endpoint-result": 103
  },
  {
    "compound": "Cc1cc(N2CCC(N(C)C(=O)c3ccc4c(c3)C(N(C)C(=O)Nc3cccc(Cl)c3Cl)CC4)CC2)cc(C)n1 (stereo not shown) [CC_H-339]",
    "assay-endpoint": "inhibition at 10 µM",
    "unit-tag": "%",
    "endpoint-result": 92
  },
  {
    "compound": "CN(C(=O)c1ccc2c(c1)C(NC(=O)C1CCCCC1)CC2)C1CCN(c2ccc3cnccc3c2)CC1 (stereo not shown) [CC_H-360]",
    "assay-endpoint": "inhibition at 10 µM",
    "unit-tag": "%",
    "endpoint-result": 109
  },
  {
    "compound": "CC(=O)NC1CCCc2ccc(C(=O)N(C)C3CCN(c4ccncc4)CC3)cc21 (stereo not shown) [CC_H-253]",
    "assay-endpoint": "inhibition at 10 µM",
    "unit-tag": "%",
    "endpoint-result": 110
  },
  {
    "compound": "CN(C(=O)c1ccc2c(c1)CCC2NC(=O)c1sccc1Cl)C1CCN(c2ccncc2)CC1 (stereo not shown) [CC_H-13]",
    "assay-endpoint": "inhibition at 10 µM",
    "unit-tag": "%",
    "endpoint-result": 78
  }
]

Data request: Give the reported inhibition at 10 µM for this compound. CN(C(=O)c1ccc2c(c1)C(NS(=O)(=O)Cc1cccc(C(F)(F)F)c1)CC2)C1CCN(c2ccc3cnccc3c2)CC1 (stereo not shown) [CC_H-383]
Data returned: 50

Data request: Return inhibition at 10 µM for the following compound: CN(C(=O)c1ccc2c(c1)C(NC(=O)Nc1ccc(Cl)cc1Cl)CCO2)C1CCN(c2ccncc2)CC1 (stereo not shown) [CC_H-286]
Data returned: 87
